# Test system: HeLa Kyoto
# TEST_DESCRIPTION: solubility change mitosis vs G1/S (difference of NP-40 vs SDS log2 ratios) (log2 ratio difference); higher = more soluble in mitosis
Give solubility change mitosis (log2) for every item shown.
Lab note: record the figure alone, no unit after it.

Data request: Please look up its solubility change mitosis (log2): MAPMGIRLSPLGVAVFCLLGLGVLYHLYSGFLAGRFSLFGLGGEPGGGAAGPAAAADGGTVDLREMLAVSVLAAVRGGDEVRRVRESNVLHEKSKGKTREGAEDKMTSGDVLSNRKMFYLLKTAFPSVQINTEEHVDAADQEVILWDHKIPEDILKEVTTPKEVPAESVTVWIDPLDATQEYTEDLRKYVTTMVCVAVNGKPMLGVIHKPFSEYTAWAMVDGGSNVKARSSYNEKTPRIVVSRSHSGMVKQVALQTFGNQTTIIPAGGAGYKVLALLDVPDKSQEKADLYIHVTYIKKWDICAGNAILKALGGHMTTLSGEEISYTGSDGIEGGLLASIRMNHQALVRKLPDLEKTGHK [IMPAD1]
Data returned: -0.132

Data request: MAAPAQQTTQPGGGKRKGKAQYVLAKRARRCDAGGPRQLEPGLQGILITCNMNERKCVEEAYSLLNEYGDDMYGPEKFTDKDQQPSGSEGEDDDAEAALKKEVGDIKASTEMRLRRFQSVESGANNVVFIRTLGIEPEKLVHHILQDMYKTKKKKTRVILRMLPISGTCKAFLEDMKKYAETFLEPWFKAPNKGTFQIVYKSRNNSHVNREEVIRELAGIVCTLNSENKVDLTNPQYTVVVEIIKAVCCLSVVKDYMLFRKYNLQEVVKSPKDPSQLNSKQGNGKEAKLESADKSDQNNTAEGKNNQQVPENTEELGQTKPTSNPQVVNEGGAKPELASQATEGSKSNENDFS [THUMPD1] , same question.
Data returned: -0.0115

Data request: MKRQGASSERKRARIPSGKAGAANGFLMEVCVDSVESAVNAERGGADRIELCSGLSEGGTTPSMGVLQVVKQSVQIPVFVMIRPRGGDFLYSDREIEVMKADIRLAKLYGADGLVFGALTEDGHIDKELCMSLMAICRPLPVTFHRAFDMVHDPMAALETLLTLGFERVLTSGCDSSALEGLPLIKRLIEQAKGRIVVMPGGGITDRNLQRILEGSGATEFHCSARSTRDSGMKFRNSSVAMGASLSCSEYSLKVTDVTKVRTLNAIAKNILV [CUTC] , same question.
Data returned: -0.0574

Data request: MNIVVEFFVVTFKVLWAFVLAAARWLVRPKEKSVAGQVCLITGAGSGLGRLFALEFARRRALLVLWDINTQSNEETAGMVRHIYRDLEAADAAALQAGNGEEEILPHCNLQVFTYTCDVGKRENVYLTAERVRKEVGEVSVLVNNAGVVSGHHLLECPDELIERTMMVNCHAHFWTTKAFLPTMLEINHGHIVTVASSLGLFSTAGVEDYCASKFGVVGFHESLSHELKAAEKDGIKTTLVCPYLVDTGMFRGCRIRKEIEPFLPPLKPDYCVKQAMKAILTDQPMICTPRLMYIVTFMKSILPFEAVVCMYRFLGADKCMYPFIAQRKQATNNNEAKNGI [RDH10] , same question.
Data returned: -0.104

Data request: MALRVVRSVRALLCTLRAVPSPAAPCPPRPWQLGVGAVRTLRTGPALLSVRKFTEKHEWVTTENGIGTVGISNFAQEALGDVVYCSLPEVGTKLNKQDEFGALESVKAASELYSPLSGEVTEINEALAENPGLVNKSCYEDGWLIKMTLSNPSELDELMSEEAYEKYIKSIEE [GCSH] , same question.
Data returned: -0.0756

---

Give thermal stability score for every item shown.
# System: HeLa Kyoto
# TEST_DESCRIPTION: thermal stability score vs G1/S (z-score of summed log2 fold changes over temperatures); higher = more thermally stable than in G1/S
# MEASUREMENT_SETUP: cell cycle stage: early G1 (4.5 h after nocodazole release)
Lab note: record the figure alone, no unit after it.

Data request: Lab note: need thermal stability score for MALKQISSNKCFGGLQKVFEHDSVELNCKMKFAVYLPPKAETGKCPALYWLSGLTCTEQNFISKSGYHQSASEHGLVVIAPDTSPRGCNIKGEDESWDFGTGAGFYVDATEDPWKTNYRMYSYVTEELPQLINANFPVDPQRMSIFGHSMGGHGALICALKNPGKYKSVSAFAPICNPVLCPWGKKAFSGYLGTDQSKWKAYDATHLVKSYPGSQLDILIDQGKDDQFLLDGQLLPDNFIAACTEKKIPVVFRLQEGYDHSYYFIATFITDHIRHHAKYLNA [ESD] on HeLa Kyoto, anyone have it?
Data returned: -1.51

Data request: TRIOBP , same question.
Data returned: 0.418

Data request: MTSALENYINRTVAVITSDGRMIVGTLKGFDQTINLILDESHERVFSSSQGVEQVVLGLYIVRGDNVAVIGEIDEETDSALDLGNIRAEPLNSVAH [LSM8] , same question.
Data returned: -1.46

---

# System: HeLa Kyoto
# TEST_DESCRIPTION: thermal stability score vs G1/S (z-score of summed log2 fold changes over temperatures); higher = more thermally stable than in G1/S
# MEASUREMENT_SETUP: cell cycle stage: mitosis
Give thermal stability score for every item shown.

Data request: Please look up its thermal stability score: MEELLRRELGCSSVRATGHSGGGCISQGRSYDTDQGRVFVKVNPKAEARRMFEGEMASLTAILKTNTVKVPKPIKVLDAPGGGSVLVMEHMDMRHLSSHAAKLGAQLADLHLDNKKLGEMRLKEAGTVGRGGGQEERPFVARFGFDVVTCCGYLPQVNDWQEDWVVFYARQRIQPQMDMVEKESGDREALQLWSALQLKIPDLFRDLEIIPALLHGDLWGGNVAEDSSGPVIFDPASFYGHSEYELAIAGMFGGFSSSFYSAYHGKIPKAPGFEKRLQLYQLFHYLNHWNHFGSGYRGSSLNIMRNLVK [FN3KRP]
Data returned: -2.45

Data request: MAAAALGQIWARKLLSVPWLLCGPRRYASSSFKAADLQLEMTQKPHKKPGPGEPLVFGKTFTDHMLMVEWNDKGWGQPRIQPFQNLTLHPASSSLHYSLQLFEGMKAFKGKDQQVRLFRPWLNMDRMLRSAMRLCLPSFDKLELLECIRRLIEVDKDWVPDAAGTSLYVRPVLIGNEPSLGVSQPTRALLFVILCPVGAYFPGGSVTPVSLLADPAFIRAWVGGVGNYKLGGNYGPTVLVQQEALKRGCEQVLWLYGPDHQLTEVGTMNIFVYWTHEDGVLELVTPPLNGVILPGVVRQSLLDMAQTWGEFRVVERTITMKQLLRALEEGRVREVFGSGTACQVCPVHRILYKDRNLHIPTMENGPELILRFQKELKEIQYGIRAHEWMFPV [BCAT2] , same question.
Data returned: -0.0554

Data request: MAPARLFALLLFFVGGVAESIRETEVIDPQDLLEGRYFSGALPDDEDVVGPGQESDDFELSGSGDLDDLEDSMIGPEVVHPLVPLDNHIPERAGSGSQVPTEPKKLEENEVIPKRISPVEESEDVSNKVSMSSTVQGSNIFERTEVLAALIVGGIVGILFAVFLILLLMYRMKKKDEGSYDLGKKPIYKKAPTNEFYA [SDC4] , same question.
Data returned: 4.92

Data request: MFVARSIAADHKDLIHDVSFDFHGRRMATCSSDQSVKVWDKSESGDWHCTASWKTHSGSVWRVTWAHPEFGQVLASCSFDRTAAVWEEIVGESNDKLRGQSHWVKRTTLVDSRTSVTDVKFAPKHMGLMLATCSADGIVRIYEAPDVMNLSQWSLQHEISCKLSCSCISWNPSSSRAHSPMIAVGSDDSSPNAMAKVQIFEYNENTRKYAKAETLMTVTDPVHDIAFAPNLGRSFHILAIATKDVRIFTLKPVRKELTSSGGPTKFEIHIVAQFDNHNSQVWRVSWNITGTVLASSGDDGCVRLWKANYMDNWKCTGILKGNGSPVNGSSQQGTSNPSLGSTIPSLQNSLNGSSAGRKHS [SEH1L] , same question.
Data returned: -4.18

Data request: CREBBP , same question.
Data returned: -0.841

Data request: MVSHSELRKLFYSADAVCFDVDSTVIREEGIDELAKICGVEDAVSEMTRRAMGGAVPFKAALTERLALIQPSREQVQRLIAEQPPHLTPGIRELVSRLQERNVQVFLISGGFRSIVEHVASKLNIPATNVFANRLKFYFNGEYAGFDETQPTAESGGKGKVIKLLKEKFHFKKIIMIGDGATDMEACPPADAFIGFGGNVIRQQVKDNAKWYITDFVELLGELEE [PSPH] , same question.
Data returned: -0.969

Measured values drawn from the supplement of paper PMC5998384 for this set.
